# credit: the Immune Epitope Database (IEDB)

Molecular target: HLA-B*44:02
Assay: IEDB peptide-MHC binding, purified MHC/competitive/radioactivity; filed as Kd, often an IC50 or EC50 that approximates it; bounds were set here for any values at or beyond the usual limits of such assays
Conditions: source organism: SARS coronavirus Tor2
pKd: −log10 of the molar value.
# binarize pKd: threshold 6 inclusive, high side met, low side not met

[
  {
    "Sequence Record": "VEAVMYMGTL",
    "Class Label": "not met"
  },
  {
    "Sequence Record": "FEIKSAKKF",
    "Class Label": "met"
  },
  {
    "Sequence Record": "TENLVIEGPT",
    "Class Label": "not met"
  },
  {
    "Sequence Record": "EEAALCTFL",
    "Class Label": "met"
  },
  {
    "Sequence Record": "DEFIQRYKL",
    "Class Label": "not met"
  },
  {
    "Sequence Record": "EEGNLLDSYF",
    "Class Label": "met"
  },
  {
    "Sequence Record": "REVSTAAVT",
    "Class Label": "not met"
  },
  {
    "Sequence Record": "QELYSPLFL",
    "Class Label": "met"
  },
  {
    "Sequence Record": "GETPIAYRNV",
    "Class Label": "not met"
  }
]

Please find the next sequence below.
Ask: I'd appreciate it if you could say whether `SELAKGVAL` has pKd at least equal to 6.
Reply: met

----------
Target: HLA-A*24:02
Assay: IEDB peptide-MHC binding, purified MHC/competitive/radioactivity; filed as Kd, often an IC50 or EC50 that approximates it; bounds were set here for any values at or beyond the usual limits of such assays
Conditions: source organism: Lymphocytic choriomeningitis virus (strain Armstrong)
Metric: pKd
# pKd = -log10(concentration in molar units)

Ask: pKd of `DYFESFSSFF` on HLA-A*24:02?
Reply: 7.96

----------
Biological target: HLA-B*53:01
Experiment: IEDB peptide-MHC binding, purified MHC/competitive/radioactivity; filed as Kd, often an IC50 or EC50 that approximates it; bounds were set here for any values at or beyond the usual limits of such assays
Conditions: source organism: Mammarenavirus brazilense
Metric: Kd (nM)
The reply should contain only the number, in nM.

Ask: Can you share its Kd? I mean this sequence: `TPTQLAETI`
Reply: 183

----------
Biological target: HLA-A*03:01
Test: IEDB peptide-MHC binding, purified MHC/direct/fluorescence; filed as Kd, often an IC50 or EC50 that approximates it; bounds were set here for any values at or beyond the usual limits of such assays
Conditions: source organism: Cryptosporidium parvum
Metric: Kd

Ask: Kd of `RKWGLDFCY` on HLA-A*03:01?
Reply: ≥ 20 µM

----------
Target: HLA-B*15:17
Experiment: IEDB peptide-MHC binding, purified MHC/direct/fluorescence; filed as Kd, often an IC50 or EC50 that approximates it; bounds were set here for any values at or beyond the usual limits of such assays
Conditions: source organism: Mycobacterium tuberculosis
Metric: Kd

[
  {
    "Sequence Record": "YPACEAIGL",
    "Experimental Target": "HLA-B*15:17",
    "Metric": "Kd",
    "Result": "≥ 20 µM"
  },
  {
    "Sequence Record": "KVMVICYAY",
    "Experimental Target": "HLA-B*15:17",
    "Metric": "Kd",
    "Result": "6.9 µM"
  }
]

Ask: Can you share its Kd? I mean this sequence: `RPAPATGAL`
Reply: ≥ 20 µM
